Recorded values, source the supplement of paper PMC10724198.

# protein stability index annotations
- System: Saccharomyces cerevisiae
- Assay Details: protein stability index of tFT-peptide fusion in wild type (PSI (0-1 scale)); higher = more stable (slower turnover)
- Condition Context: genetic background: wild type
When you answer, write just the number.

Previously resolved entries follow.
1. AITLPMCPLLWR    0.326
2. RVTREDAIYFRI    0.625

Q: Under Saccharomyces cerevisiae: report protein stability index of LVVYLSHVACIN .
Ans: 0.148

Q: Under Saccharomyces cerevisiae: report protein stability index of RLIQPLPVQFCN .
Ans: 0.195

Q: Under Saccharomyces cerevisiae: report protein stability index of RLIQPLPVQVLN .
Ans: 0.204

Q: Under Saccharomyces cerevisiae: report protein stability index of PSLAASFWLVVG .
Ans: 0.38

Q: Under Saccharomyces cerevisiae: report protein stability index of VSMRWTFRYWVN .
Ans: 0.0543

Q: Under Saccharomyces cerevisiae: report protein stability index of PSLAASFVRVVG .
Ans: 0.528

Q: Under Saccharomyces cerevisiae: report protein stability index of KKPKKGQKQKIN .
Ans: 0.174

----------
# protein stability index annotations
- Test system: Saccharomyces cerevisiae
- Assay Details: protein stability index of tFT-peptide fusion (C-terminal peptide) (PSI (0-1 scale)); higher = more stable (slower turnover)
- Condition Context: genetic background: das1 deletion; temperature: 37 C

Previously resolved entries follow.
1) IWVFSVTGWCGC    0.55
2) CGCLPYIGTKLC    0.766
3) VLVLLVCVAALV    0.295
4) LVHLVLYVAVFC    0.409
5) LLMPLLLHSLVW    0.455

Q: Supply protein stability index value. Item: KKKQAILRTLKI
Ans: 0.697

Q: Supply protein stability index value. Item: EWFFCLGLFRFH
Ans: 0.615

----------
- Tested on: Saccharomyces cerevisiae
- Assay Details: protein stability index of tFT-peptide fusion (C-terminal peptide) (PSI (0-1 scale)); higher = more stable (slower turnover)
- Condition Context: genetic background: wild type; temperature: 30 C
// label = YES if protein stability index is not less than 0.7, otherwise NO

1. EAGESKNVDSLL    NO
2. SSPFSLPSPPLS    NO

Q: Evaluate FFSRSLGAGVAA : protein stability index at minimum 0.7?
Ans: NO

Q: Evaluate LFFLPPCYWFLL : protein stability index at minimum 0.7?
Ans: NO

Q: Evaluate FGLPPGNWSSGH : protein stability index at minimum 0.7?
Ans: YES

Q: Evaluate PPPGPPLPPGLP : protein stability index at minimum 0.7?
Ans: YES

Q: Evaluate ARTGRELVLPKG : protein stability index at minimum 0.7?
Ans: NO

Q: Evaluate RGPSQVIVAFFV : protein stability index at minimum 0.7?
Ans: NO

Q: Evaluate SFQCTCLSPCTG : protein stability index at minimum 0.7?
Ans: NO

Q: Evaluate PPSLPPHASPTP : protein stability index at minimum 0.7?
Ans: YES

----------
- Tested on: Saccharomyces cerevisiae
- Assay Details: protein stability index of tFT-peptide fusion (C-terminal peptide) (PSI (0-1 scale)); higher = more stable (slower turnover)
- Condition Context: genetic background: wild type; temperature: 30 C
Property Name: protein stability index
When you answer, write just the number.

Previously resolved entries follow.
1. FSLPPAASDFPS    0.685
2. NIKNQEVKTHDT    0.68
3. CCGQRYACVFQT    0.651
4. VYRGSQKQRAQG    0.685

Q: Supply protein stability index value. Item: RSRHRRQDGKKT
Ans: 0.64

Q: Supply protein stability index value. Item: SVSGPAPPSMSS
Ans: 0.618

Q: Supply protein stability index value. Item: LSLLFLSLSLLR
Ans: 0.61

Q: Supply protein stability index value. Item: AHMAQQNEQRVK
Ans: 0.748

Q: Supply protein stability index value. Item: CSVPPPLPPTTF
Ans: 0.683

Q: Supply protein stability index value. Item: NRNIRKKKIKNK
Ans: 0.668

----------
- System: Saccharomyces cerevisiae
- Assay Details: protein stability index of tFT-peptide fusion (C-terminal peptide) (PSI (0-1 scale)); higher = more stable (slower turnover)
- Condition Context: genetic background: wild type; temperature: 37 C
Property Name: protein stability index
When you answer, write just the number.

Previously resolved entries follow.
1. ESVPLLIVLHLV    0.0718
2. LVDSRIVWLFVS    0.0698

Q: Supply protein stability index value. Item: SLIDPLGNLFNS
Ans: 0.72

Q: Supply protein stability index value. Item: FLIFGMVDFAVV
Ans: 0.387

Q: Supply protein stability index value. Item: LLMPLLLHSLVW
Ans: 0.434

----------
- System: Saccharomyces cerevisiae
- Assay Details: protein stability index of tFT-peptide fusion (C-terminal peptide) (PSI (0-1 scale)); higher = more stable (slower turnover)
- Condition Context: genetic background: cdc34-1; temperature: 37 C
Property Name: protein stability index

Previously resolved entries follow.
1. LLCLAVVLWFVV    0.216
2. RGLWAAIPRKCT    0.669
3. VTGYLSTLTMLC    0.6
4. VGYSLFTFLFCA    0.579
5. LFRRMWVEIFYV    0.439

Q: Supply protein stability index value. Item: PGVWVVILRWWV
Ans: 0.0876

Q: Supply protein stability index value. Item: QWTVRNQGVMQR
Ans: 0.699

Q: Supply protein stability index value. Item: RVCYQIAISLPI
Ans: 0.546

Q: Supply protein stability index value. Item: VLYCRSCFLRVS
Ans: 0.543

Q: Supply protein stability index value. Item: SGPCSPRNLRRL
Ans: 0.699

----------
- Test system: Saccharomyces cerevisiae
- Assay Details: protein stability index of tFT-peptide fusion (C-terminal peptide) (PSI (0-1 scale)); higher = more stable (slower turnover)
- Condition Context: genetic background: wild type; temperature: 30 C
# protein stability index annotations

1. GMDGRGWGGSVV    0.726
2. RKETQKIRKKRI    0.679
3. VLQSLRSLRRLG    0.549
4. LTWVVNSGKGRC    0.918
5. PPPPPPSPLTLP    0.775

Q: Supply protein stability index value. Item: AVYIEFLYPRRL
Ans: 0.644

Q: Supply protein stability index value. Item: RKGRVLIMTYRK
Ans: 0.682

Q: Supply protein stability index value. Item: VRTSGRCCPTGP
Ans: 0.641

----------
# protein stability index annotations
- Test system: Saccharomyces cerevisiae
- Assay Details: protein stability index of tFT-peptide fusion (C-terminal peptide) (PSI (0-1 scale)); higher = more stable (slower turnover)
- Condition Context: genetic background: das1 deletion; temperature: 30 C

1. EGPVTIILDSDQ [DTD1 C-terminal 12 aa]    0.701
2. IHSTKEEKNCNH [YDR095C C-terminal 12 aa]    0.712
3. PTPPTPPTPPQQ [ECM19 C-terminal 12 aa]    0.701
4. IIQQNLKKIGII [GPA1 C-terminal 12 aa]    0.696
5. IITGSTSTSSSN [MED8 C-terminal 12 aa]    0.671

Q: Under Saccharomyces cerevisiae: report protein stability index of KLVDVRKVYYSS [MRPS5 C-terminal 12 aa] .
Ans: 0.707

Q: Under Saccharomyces cerevisiae: report protein stability index of IVHKSNFINNKK [OXA1 C-terminal 12 aa] .
Ans: 0.722

----------
- Test system: Saccharomyces cerevisiae
- Assay Details: protein stability index of tFT-peptide fusion (C-terminal peptide) (PSI (0-1 scale)); higher = more stable (slower turnover)
- Condition Context: genetic background: wild type; temperature: 30 C
# protein stability index annotations
When you answer, write just the number.

Previously resolved entries follow.
1) EFDLADDRRYDI [TPO5 C-terminal 12 aa]    0.682
2) YGRGETPKHAIE [DPH1 C-terminal 12 aa]    0.713
3) SDISDLDDLGFL [RPN3 C-terminal 12 aa]    0.679
4) YLISEKIIRKHL [MET14 C-terminal 12 aa]    0.602
5) SKDLGNVLTNLL [ESF2 C-terminal 12 aa]    0.679

Please turn your attention to the following entry.
Q: Supply protein stability index value. Item: SWLYNFDELLWQ [ALG8 C-terminal 12 aa]
Ans: 0.727

----------
# protein stability index annotations
- Test system: Saccharomyces cerevisiae
- Assay Details: protein stability index of tFT-peptide fusion (C-terminal peptide) (PSI (0-1 scale)); higher = more stable (slower turnover)
- Condition Context: genetic background: wild type; temperature: 30 C
When you answer, write just the number.

Previously resolved entries follow.
1) LRAVCDLTGSRV    0.68
2) DGSIGASPGRGL    0.695
3) LLPSNFLLLVGV    0.289

Q: Supply protein stability index value. Item: DLRHLLVPVPRI
Ans: 0.707

Q: Supply protein stability index value. Item: PRPPHLPPPVPS
Ans: 0.73

Q: Supply protein stability index value. Item: SFDPPYALLPPP
Ans: 0.685

Q: Supply protein stability index value. Item: GRRRSRGRPIDL
Ans: 0.754

Q: Supply protein stability index value. Item: SWCLLVWIGGVF
Ans: 0.388
